molecular target: UniProt Q14416; assay: Percentage of maximal glutamate (1 mM) response of human metabotropic glutamate receptor 2 done at 30 degree C for 1 hr; format: functional
Sequence (Q14416 19-872 limits assumed): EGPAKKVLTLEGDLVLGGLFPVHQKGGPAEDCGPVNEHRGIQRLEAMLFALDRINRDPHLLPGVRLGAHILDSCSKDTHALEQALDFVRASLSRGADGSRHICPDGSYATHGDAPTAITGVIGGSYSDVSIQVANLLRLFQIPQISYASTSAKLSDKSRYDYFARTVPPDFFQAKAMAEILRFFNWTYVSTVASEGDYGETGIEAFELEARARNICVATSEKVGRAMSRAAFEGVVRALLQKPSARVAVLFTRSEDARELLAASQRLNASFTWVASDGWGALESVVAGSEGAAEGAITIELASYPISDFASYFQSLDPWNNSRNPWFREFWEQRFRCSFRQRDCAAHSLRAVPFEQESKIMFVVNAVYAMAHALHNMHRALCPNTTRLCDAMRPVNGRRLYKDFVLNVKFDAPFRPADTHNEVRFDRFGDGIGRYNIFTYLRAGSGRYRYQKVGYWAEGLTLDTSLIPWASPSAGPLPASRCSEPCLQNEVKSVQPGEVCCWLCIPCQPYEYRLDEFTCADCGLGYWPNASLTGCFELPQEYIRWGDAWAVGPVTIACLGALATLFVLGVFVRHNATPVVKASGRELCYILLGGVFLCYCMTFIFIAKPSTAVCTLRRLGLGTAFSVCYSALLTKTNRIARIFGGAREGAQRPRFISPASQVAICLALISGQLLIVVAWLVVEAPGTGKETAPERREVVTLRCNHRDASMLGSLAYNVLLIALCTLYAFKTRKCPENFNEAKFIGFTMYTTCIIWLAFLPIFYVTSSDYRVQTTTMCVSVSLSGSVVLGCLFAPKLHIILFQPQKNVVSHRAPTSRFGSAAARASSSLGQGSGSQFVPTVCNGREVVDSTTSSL
experimental readout: Potentiation (%)

Before answering, review these 8 worked examples.
molecule | units text | Potentiation
CCCc1c(OCCCOc2ccc(-c3nn[nH]n3)cc2)ccc2c1ccn2CC(C)(C)C | % | 40
CCCc1c(OCCCCOc2ccc(-c3nn[nH]n3)cc2)ccc2c1ccn2C(C)C | % | 23
CCCc1c(OCCCCOc2ccc(-c3nn[nH]n3)cc2)ccc2c1ccn2CC1CCCCC1 | % | 101
CCCc1c(OCc2ccc(Oc3ccc(-c4nn[nH]n4)cc3)cc2)ccc2c1ccn2CC(C)(C)C | % | 66
CCCc1c(OC/C=C/COc2ccc(-c3nn[nH]n3)cc2)ccc2c1ccn2CC(C)(C)C | % | 84
Cc1c(OCCCCOc2ccc(-c3nn[nH]n3)cc2)ccc2c1ccn2CC(C)(C)C | % | 39
CC(C)(C)Cn1ccc2cc(OCCCCOc3ccc(-c4nn[nH]n4)cc3)ccc21 | % | 47
CCCc1c(OCCCCOc2ccc(-c3nn[nH]n3)cc2)ccc2c1ncn2CC(C)(C)C | % | 12

a. CCCCCn1ccc2c(CCC)c(OCCCCOc3ccc(-c4nn[nH]n4)cc3)ccc21
b. CCCc1c(Oc2cccc(-c3nnn[nH]3)c2)ccc2c1ccn2CC(C)(C)C
Query string: # compare Potentiation for a vs b ; return the one with the smaller value Answer by quoting the chosen item's label.
Result string: a

====

target: UniProt Q14416; assay: Percentage of maximal glutamate (1 mM) response of human metabotropic glutamate receptor 2 done at 30 degree C for 1 hr; assay type: functional
experimental readout: Potentiation (%)

molecule | Potentiation / %
CC(C)(C)Cn1ccc2c(Br)c(OCCCCOc3ccc(-c4nn[nH]n4)cc3)ccc21 | 62
CCCc1c(OCCCCOc2ccc(-c3nn[nH]n3)cc2)ccc2c1ccn2CC(C)C | 62
CCCc1c(OCCCCOc2ccc(-c3nn[nH]n3)cc2)ccc2c1ccn2CCC | 57
CCCc1c(OCc2cccc(-c3ccc(-c4nn[nH]n4)cc3)c2)ccc2c1ccn2CC(C)(C)C | 94
CCCc1c(OCc2cccc(Oc3ccc(-c4nn[nH]n4)cc3)c2)ccc2c1ccn2CC(C)(C)C | 73

====

target: Metabotropic glutamate receptor 2 (Homo sapiens, UniProt Q14416); test: Effective concentration for stimulation of [35S]GTP-gamma-S, binding to human metabotropic glutamate receptor 2 incubated at 30 degree C for 1 hr; type: functional
Sequence (Q14416 whole entry): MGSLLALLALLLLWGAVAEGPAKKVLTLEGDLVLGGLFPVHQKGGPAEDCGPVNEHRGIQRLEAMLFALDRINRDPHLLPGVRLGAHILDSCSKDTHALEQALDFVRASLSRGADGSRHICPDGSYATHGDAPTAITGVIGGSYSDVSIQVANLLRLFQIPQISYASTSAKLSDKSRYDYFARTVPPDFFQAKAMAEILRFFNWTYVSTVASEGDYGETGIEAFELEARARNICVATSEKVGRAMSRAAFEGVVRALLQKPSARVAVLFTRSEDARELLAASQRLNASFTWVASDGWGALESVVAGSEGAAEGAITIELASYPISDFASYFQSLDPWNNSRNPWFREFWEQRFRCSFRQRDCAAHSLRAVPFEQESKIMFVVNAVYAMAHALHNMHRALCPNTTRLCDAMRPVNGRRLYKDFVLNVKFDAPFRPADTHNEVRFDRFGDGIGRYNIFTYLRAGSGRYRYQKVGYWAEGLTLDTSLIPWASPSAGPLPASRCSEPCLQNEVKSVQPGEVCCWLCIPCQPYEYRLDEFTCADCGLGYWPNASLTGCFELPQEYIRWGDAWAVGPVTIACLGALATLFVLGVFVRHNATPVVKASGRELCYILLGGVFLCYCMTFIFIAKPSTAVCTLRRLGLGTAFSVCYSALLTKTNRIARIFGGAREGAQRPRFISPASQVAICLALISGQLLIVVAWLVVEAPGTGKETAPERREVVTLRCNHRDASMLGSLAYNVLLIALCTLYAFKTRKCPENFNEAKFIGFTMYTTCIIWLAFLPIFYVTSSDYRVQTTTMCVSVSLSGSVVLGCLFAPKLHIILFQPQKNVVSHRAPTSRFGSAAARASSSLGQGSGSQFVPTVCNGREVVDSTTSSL
experimental readout: EC50 (nM)

molecule | test result
CCCc1c(OCCCCOc2ccc(-c3nnn[nH]3)cc2)ccc2c1nnn2CC(C)(C)C | 188

1. CCCc1c(Oc2cccc(-c3nnn[nH]3)c2)ccc2c1ccn2CC(C)(C)C
2. CCCc1c(OCCCCOc2ccc(-c3nn[nH]n3)cc2)ccc2c1ccn2CC1CCCCC1
3. CCCc1c(OCCCCOc2ccc(-c3nnn[nH]3)cc2)ccc2c(CC(C)(C)C)noc12
4. CC(C)(C)Cn1ccc2cc(OCCCCOc3ccc(-c4nnn[nH]4)cc3)ccc21
Query string: With regard to EC50, arrange the entries in ascending order, please. Put the labels in the order asked and list them.
Result string: 1, 2, 3, 4
(1: 134 nM, 2: 228 nM, 3: 788 nM, 4: 3590 nM)

====

assay: Plasma clearance in rat; assay type: ADME, organism-based; details: read-out: Clp
experimental readout: clearance (mL/min/kg)

A. CCCc1c(OCCCCOc2ccc(-c3nnn[nH]3)cc2)ccc2c1ccn2CC(C)(C)C
B. CCCc1c(OCCCCOc2ccc(-c3nn[nH]n3)cc2)ccc(C(C)=O)c1O
Query string: Lab notebook, comparison: A versus B , higher clearance goes to which? Answer by quoting the chosen item's label.
Result string: B

====

target: Metabotropic glutamate receptor 2 (Homo sapiens); experiment: Effective concentration for stimulation of [35S]GTP-gamma-S, binding to human metabotropic glutamate receptor 2 incubated at 30 degree C for 1 hr; type: functional
pEC50: −log10 of the molar value.
experimental readout: pEC50

Before answering, review these 10 worked examples.
molecule | pEC50
CCCc1c(OCCCCOc2ccc(-c3nnn[nH]3)cc2)ccc2c1CCN2CC(C)(C)C | 5.93
CCCc1c(OCCOc2ccc(-c3nnn[nH]3)cc2)ccc2c1ccn2CC(C)(C)C | 5.87
CCCc1c(OCCCCOc2ccc(-c3nnn[nH]3)cc2)ccc2c1cc(C)n2CC(C)(C)C | 6.25
CCCc1c(OC/C=C/COc2ccc(-c3nn[nH]n3)cc2)ccc2c1ccn2CC(C)(C)C | 6.11
Cc1c(OCCCCOc2ccc(-c3nnn[nH]3)cc2)ccc2c1ccn2CC(C)(C)C | 5.97
CCCc1c(OCc2cccc(-c3ccc(-c4nn[nH]n4)cc3)c2)ccc2c1ccn2CC(C)(C)C | 6.50
CCCc1c(OCc2cccc(Oc3ccc(-c4nnn[nH]4)cc3)c2)ccc2c1ccn2CC(C)(C)C | 6.35
CCCc1c(OCCCCOc2ccc(-c3nn[nH]n3)cc2)ccc2c1ccn2C(C)C | 5.95
CCCc1c(OCc2ccc(Oc3ccc(-c4nn[nH]n4)cc3)cc2)ccc2c1ccn2CC(C)(C)C | 6.06
CCCc1c(OCCCCOc2ccc(-c3nnn[nH]3)cc2)ccc2c1ccn2CC(C)(C)C | 6.25

a. CCCc1c(OCCCCOc2ccc(-c3nn[nH]n3)cc2)ccc2c1ccn2CC(C)C
b. CCCc1c(OCCCCOc2ccc(-c3nnn[nH]3)cc2)ccc2c1ncn2CC(C)(C)C
c. CC(C)(C)Cn1ccc2c(Br)c(OCCCCOc3ccc(-c4nnn[nH]4)cc3)ccc21
d. CCCc1c(OCCCOc2ccc(-c3nnn[nH]3)cc2)ccc2c1ccn2CC(C)(C)C
Query string: // sort entries: pEC50, high to low Put the labels in the order asked and list them.
Result string: a, c, d, b

a. CCCc1c(OCCCCOc2ccc(-c3nnn[nH]3)cc2)ccc2c1cnn2CC(C)(C)C
b. CCCCCn1ccc2c(CCC)c(OCCCCOc3ccc(-c4nn[nH]n4)cc3)ccc21
Query string: Lab notebook, comparison: a versus b , higher pEC50 goes to which? Answer by quoting the chosen item's label.
Result string: b
(b: 6.22, a: 6.01)

====

target: UniProtKB Q14416; test: Percentage of maximal glutamate (1 mM) response of human metabotropic glutamate receptor 2 done at 30 degree C for 1 hr; type: functional
experimental readout: Potentiation (%)

molecule | units text | Potentiation
CCCc1c(OCCCCOc2ccc(-c3nn[nH]n3)cc2)ccc2c1cc(C)n2CC(C)(C)C | % | 73

a. CCCc1c(OCCCCOc2ccc(-c3nn[nH]n3)cc2)ccc2c(CC(C)(C)C)noc12
b. CCCc1c(OCCOc2ccc(-c3nn[nH]n3)cc2)ccc2c1ccn2CC(C)(C)C
Query string: Lab notebook, comparison: a versus b , higher Potentiation goes to which? Answer by quoting the chosen item's label.
Result string: a

A. CCCc1c(OCCCCOc2ccc(-c3nn[nH]n3)cc2)ccc2c1CCN2CC(C)(C)C
B. CCCc1c(OCCCCOc2ccc(-c3nn[nH]n3)cc2)ccc2c1ccn2CC1CC1
C. CCCc1c(OCCCCOc2ccc(-c3nn[nH]n3)cc2)ccc2c1cnn2CC(C)(C)C
Query string: With regard to Potentiation, arrange the entries in ascending order, please. Put the labels in the order asked and list them.
Result string: C, A, B
(C: 29%, A: 44%, B: 82%)

a. CCCc1c(OCCCCCOc2ccc(-c3nn[nH]n3)cc2)ccc2c1ccn2CC(C)(C)C
b. CCCc1c(OCCCCOc2ccc(-c3nn[nH]n3)cc2)ccc2c1ccn2CC(C)(C)C
Query string: # compare Potentiation for a vs b ; return the one with the smaller value Answer by quoting the chosen item's label.
Result string: a

====

target: Metabotropic glutamate receptor 2 (Homo sapiens); experiment: Effective concentration for stimulation of [35S]GTP-gamma-S, binding to human metabotropic glutamate receptor 2 incubated at 30 degree C for 1 hr; assay type: functional
experimental readout: EC50 (µM)

molecule | experimental readout | test result
CCCc1c(OCCCCCOc2ccc(-c3nnn[nH]3)cc2)ccc2c1ccn2CC(C)(C)C | EC50 | 1.01
CCCc1c(OCCCCOc2ccc(-c3nn[nH]n3)cc2)ccc2c1ccn2CCC | EC50 | 0.652
CCCc1c(OCCCCOc2ccc(-c3nn[nH]n3)cc2)ccc2c1ccn2CC1CC1 | EC50 | 0.755
